These data points were gathered from ChEMBL document CHEMBL3112510.

# Tested on: MDA-MB-231
# experimental_details: Antimigratory activity in human MDA-MB-231 cells after 24 hrs by wound healing assay
# protocol_conditions: MDA-MB-231, 24 h
Sorting guide: entries reporting IC50 beneath 30 µM go in the Criterion met pile, the rest go in the Criterion not met pile.

{"columns": ["compound", "class_label"],
 "data": [
  ["CC1=CCC2C(CC[C@@]2(C)O)C(C)(C)C1CC[C@@H]1[C@@]2(C)CCC(=O)C(C)(C)O[C@@H]2CC[C@]1(C)O (stereo not given in full) [SIPHOLENONE A]", "Criterion met"],
  ["CC1=C(CC[C@H]2[C@]3(C)CC[C@H](O)C(C)(C)O[C@H]3CC[C@@]2(C)O)[C@@H]2[C@H](C[C@H]1C(=O)O)[C@@](C)(O)CCC2(C)C", "Criterion not met"],
  ["CC(=O)O[C@H]1CC[C@]2(C)[C@H](CC[C@@](C)(O)[C@H]2CC[C@@H]2C(C)=CC[C@H]3[C@H](CC[C@]3(C)O)C2(C)C)OC1(C)C", "Criterion met"],
  ["CC1=CC[C@H]2[C@H](CC[C@]2(C)O)C(C)(C)[C@@H]1CC[C@H]1[C@]2(C)CC[C@H](OC(=O)c3ccc([N+](=O)[O-])cc3)C(C)(C)O[C@H]2CC[C@@]1(C)O", "Criterion met"],
  ["C[C@@H]1CC[C@H]2[C@@H](/C1=C/C[C@H]1[C@]3(C)CCC(=O)C(C)(C)O[C@H]3CC[C@@]1(C)O)C(C)(C)CC[C@]2(C)O", "Criterion met"]
]}

###

# Test system: MCF7
# experimental_details: cells
# protocol_conditions: Homo sapiens, MCF7, 72 h
pIC50: −log10 of the molar value.

{"columns": ["smiles_entry", "readout_relation", "pIC50"],
 "data": [
  ["CC1=C(CC[C@H]2[C@]3(C)CC[C@H](O)C(C)(C)O[C@H]3CC[C@@]2(C)O)[C@](C)(C/C=C/C(C)(C)O)[C@H](O)CC1", "=", 4.66],
  ["CC(=O)O[C@H]1CC[C@]2(C)[C@H](CC[C@@](C)(O)[C@H]2CC[C@@H]2C(C)=CC[C@@H]3C(C)=CC[C@@H]3C2(C)C)OC1(C)C", "=", 4.36],
  ["CC1=CC[C@H]2[C@H](CC[C@]2(C)O)C(C)(C)[C@@H]1CC[C@H]1[C@]2(C)CC[C@H](OC(=O)c3ccncc3)C(C)(C)O[C@H]2CC[C@@]1(C)O", "=", 4.60],
  ["COc1ccc(C(=O)O[C@H]2CC[C@]3(C)[C@H](CC[C@@](C)(O)[C@H]3CC[C@@H]3C(C)=CC[C@H]4[C@H](CC[C@]4(C)O)C3(C)C)OC2(C)C)cc1", "=", 4.38],
  ["CC1=CC[C@H]2[C@@H]1CC=C(C)[C@@H](CC[C@H]1[C@]3(C)CC[C@H](OC(=O)c4ccc(Cl)cc4)C(C)(C)O[C@H]3CC[C@@]1(C)O)C2(C)C", "=", 4.66],
  ["CC1=CC[C@H]2[C@H](CC[C@]2(C)O)C(C)(C)[C@@H]1CC[C@H]1[C@]2(C)CC[C@H](OC(=O)c3ccc(Cl)c(Cl)c3)C(C)(C)O[C@H]2CC[C@@]1(C)O", "=", 4.92],
  ["CC1=CC[C@H]2[C@H](CC[C@]2(C)O)C(C)(C)[C@@H]1CC[C@H]1[C@]2(C)CC[C@@H](O)O[C@H]2CC[C@@]1(C)O", "<", 4.30]
]}

###

# System: MDA-MB-231
# experimental_details: Antimigratory activity in human MDA-MB-231 cells after 24 hrs by wound healing assay
# protocol_conditions: MDA-MB-231, 24 h
pIC50: −log10 of the molar value.
readout_name: pIC50

{"columns": ["compound", "readout_relation", "experimental_result"],
 "data": [
  ["CC1=CC[C@H]2[C@H](CC[C@]2(C)O)C(C)(C)[C@@H]1CC[C@H]1[C@]2(C)CC[C@H](OC(=O)c3cccc(C(F)(F)F)c3)C(C)(C)O[C@H]2CC[C@@]1(C)O", "=", 5.21],
  ["CC1=CCC2C(CC[C@@]2(C)O)C(C)(C)C1CC[C@@H]1[C@@]2(C)CC[C@@H](O)C(C)(C)O[C@@H]2CC[C@]1(C)O (stereo partly specified)", "=", 4.43],
  ["CC1=CC[C@H]2[C@H](CC[C@]2(C)O)C(C)(C)[C@@H]1CC[C@H]1[C@]2(C)CC[C@H](OC(=O)c3ccc(C(F)(F)F)cc3)C(C)(C)O[C@H]2CC[C@@]1(C)O", "=", 5.11],
  ["CC1(C)O[C@H]2CC[C@@](C)(O)[C@@H](CC[C@@H]3C(C=O)=CC[C@H]4[C@H](CC[C@]4(C)O)C3(C)C)[C@]2(C)CC[C@@H]1O", "<", 4.30],
  ["CC1=CC[C@H]2[C@H](CC[C@]2(C)O)C(C)(C)[C@@H]1CC[C@H]1[C@]2(C)CC/C(=N/O)C(C)(C)O[C@H]2CC[C@@]1(C)O", "<", 4.30],
  ["CC1=CC[C@H]2[C@@H]1CC=C(C)[C@@H](CC[C@H]1[C@]3(C)CC[C@H](OC(=O)c4ccncc4)C(C)(C)O[C@H]3CC[C@@]1(C)O)C2(C)C", "=", 5.02],
  ["CC1=CC[C@H]2[C@H](CC[C@]2(C)O)C(C)(C)[C@@H]1CC[C@H]1[C@]2(C)CC[C@H](OC(=O)c3cccc([N+](=O)[O-])c3)C(C)(C)O[C@H]2CC[C@@]1(C)O", "=", 5.23],
  ["CC1=CC[C@H]2[C@H](CC[C@]2(C)O)C(C)(C)[C@@H]1CC[C@H]1[C@]2(C)CC[C@H](OC(=O)c3ccc(C(F)(F)F)c(F)c3)C(C)(C)O[C@H]2CC[C@@]1(C)O", "=", 4.92],
  ["CC1=CC[C@H]2[C@H](CC[C@]2(C)O)C(C)(C)[C@@H]1CC[C@H]1[C@]2(C)CC[C@H](OC(=O)c3ccc(C(F)(F)F)cc3F)C(C)(C)O[C@H]2CC[C@@]1(C)O", "=", 4.58],
  ["CC1=CC[C@H]2[C@H](CC[C@]2(C)O)C(C)(C)[C@@H]1CC[C@H]1[C@]2(C)CC[C@H](OC(=O)c3ccc(Cl)cc3)C(C)(C)O[C@H]2CC[C@@]1(C)O", "=", 5.28],
  ["CC1=CC[C@H]2[C@@H]1CC=C(C)[C@@H](CC[C@H]1[C@]3(C)CC[C@H](OCc4ccccc4)C(C)(C)O[C@H]3CC[C@@]1(C)O)C2(C)C", "=", 4.87],
  ["CC1=CC[C@H]2[C@H](CC[C@]2(C)O)C(C)(C)[C@@H]1CC[C@H]1[C@]2(C)CC[C@H](OCc3ccccc3)C(C)(C)O[C@H]2CC[C@@]1(C)O", "=", 4.91],
  ["CC1=C(CC[C@H]2[C@]3(C)CC[C@H](O)C(C)(C)O[C@H]3CC[C@@]2(C)O)[C@](C)(C/C=C/C(C)(C)O)[C@H](O)CC1", "<", 4.30],
  ["CC1(C)O[C@H]2CC[C@@](C)(O)[C@@H](CC[C@H]3C(C)(C)[C@@]4(O)CC[C@](C)(O)[C@H]4C[C@H]4O[C@]43C)[C@]2(C)CC[C@@H]1O", "<", 4.30],
  ["CC1=CC[C@H]2[C@H](CC[C@]2(C)O)C(C)(C)[C@@H]1CC[C@H]1[C@]2(C)CC[C@H](OC(=O)c3ccc(Cl)c(Cl)c3)C(C)(C)O[C@H]2CC[C@@]1(C)O", "=", 5.89],
  ["CC1=CC[C@H]2[C@H](CC[C@]2(C)O)C(C)(C)[C@@H]1CC[C@@H]1[C@](C)(O)[C@H](O)C[C@@H]2OC(C)(C)[C@@H](O)CC[C@]21C", "<", 4.30],
  ["C[C@H]1C(=O)C[C@@H]2[C@@](C)(O)CC[C@]2(O)C(C)(C)[C@@H]1CC[C@H]1[C@]2(C)CCC(=O)C(C)(C)O[C@H]2CC[C@@]1(C)O", "=", 4.42],
  ["CC1=CC[C@H]2[C@H](CC[C@]2(C)O)C(C)(C)[C@@H]1CC[C@H]1[C@]2(C)CC[C@H](OC(=O)c3ccccc3[N+](=O)[O-])C(C)(C)O[C@H]2CC[C@@]1(C)O", "=", 4.73],
  ["CC1=CC[C@H]2[C@H](CC[C@]2(C)O)C(C)(C)[C@@H]1CC[C@H]1[C@]2(C)CC[C@H](OC(=O)c3ccccc3Cl)C(C)(C)O[C@H]2CC[C@@]1(C)O", "=", 5.21],
  ["COc1ccc(C(=O)O[C@H]2CC[C@]3(C)[C@H](CC[C@@](C)(O)[C@H]3CC[C@@H]3C(C)=CC[C@H]4[C@H](CC[C@]4(C)O)C3(C)C)OC2(C)C)cc1", "=", 4.75],
  ["CC1(C)O[C@H]2CC[C@@](C)(O)[C@@H](CC[C@@H]3C(CO)=CC[C@H]4[C@H](CC[C@]4(C)O)C3(C)C)[C@]2(C)CCC1=O", "<", 4.30]
]}
